pIC50: recorded values
Test system: 192522-019-R-J2-PDC complex tumor spheroid viability;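 also: spheroids exposed to drugs for seven days before reading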
Experiment summary: Anticancer human tumor 192522-019-R-J2-PDC patient-derived colon adenocarcinoma cell line growth inhibition [POLQ]
Condition notes: curve of first compound; second compound 1 µM
pIC50: −log10 of the molar value.

Molecule	Reported
C#Cc1c(F)ccc2cc(O)cc(-c3ncc4c(N5CC6CCC(C5)N6)nc(OCC56CCCN5CC(F)C6)nc4c3F)c12 (centres undefined) + Nc1ccc(C#CCN(C(=O)Cc2ncc(C(F)(F)F)cc2C(F)(F)F)c2ccc(F)cc2)nn1	< 5.00

QUERY: // query pIC50 value for entry O=C(c1cc(Cc2n[nH]c(=O)c3ccccc23)ccc1F)N1CCN(C(=O)C2CC2)CC1 + COC1C(OC(N)=O)C(O)C(Oc2ccc3c(O)c(NC(=O)c4ccc(O)c(CC=C(C)C)c4)c(=O)oc3c2C)OC1(C)C
RESULT: < 5.00

QUERY: // query pIC50 value for entry COc1cc(C2c3cc4c(cc3C(OC3OC5COC(C)OC5C(O)C3O)C3COC(=O)C23)OCO4)cc(OC)c1O (centres undefined) + Cc1cccc(N(C)C(=O)C2C(O)CCN2c2nc(C)cc(C(F)(F)F)c2C#N)c1
RESULT: < 5.00

QUERY: // query pIC50 value for entry COc1cc2cc(C(=O)CCC(=O)O)sc2cc1OC + COC1C(OC(N)=O)C(O)C(Oc2ccc3c(O)c(NC(=O)c4ccc(O)c(CC=C(C)C)c4)c(=O)oc3c2C)OC1(C)C
RESULT: < 5.00
